Protocol Details: Water solubility by shake-flask method in alkaline aqueous solution
Format: physicochemical
Conditions: aqueous KOH 1 M solution, aqueous buffer, thermodynamic from solid, aqueous KOH 1 M, shake-flask, approximate; read-out: solubility estimated, KOH (1M)
Readout: solubility (mM)

{"Smiles Notation": "Cc1cc(O)cc2c1C(=O)c1c(O)cccc1C2=O", "Units Label": "mM", "solubility": 580}

(A) Cc1cc(OCCCC(=O)O)cc2c1C(=O)c1c(O)cccc1C2=O
(B) Cc1c(C(=O)O)c(O)cc2c1C(=O)c1c(O)cccc1C2=O
Please indicate which has the smaller reported solubility: A , or B . Could you answer with the label of the item you picked?
A

Origin of the recorded values: patent US20240297323A1
